# ASSAY SYSTEM: Inhibitor of nuclear factor kappa-B kinase subunit alpha (Homo sapiens)
READOUT NAME: IC50

Problem: Missing value: IC50, Inhibitor of nuclear factor kappa-B kinase subunit alpha (Homo sapiens), entry COc1cccc2c(C3=C(c4cn(C)c5cc(I)c(F)cc45)C(=O)NC3=O)coc12 . Fill in?
Result: > 50 µM

---

# System: MIA PaCa-2
# MEASUREMENT PROTOCOL: Growth inhibition of human MIAPaCa2 cells after 72 hrs by MTS assay
# Type: functional, cell-based
# SETTINGS: MIA PaCa-2, 72 h
READOUT NAME: IC50 (µM)
Form entry: value (µM) — number only.

Some solved entries appear below for comparison.
| TEST SMILES | READOUT NAME | RESULT UNITS | VALUE OBSERVED |
| --- | --- | --- | --- |
| COc1cccc2c(C3=C(c4cn(C)c5cc(C(F)(F)F)ccc45)C(=O)NC3=O)coc12 | IC50 | µM | 8 |
| COc1ccc(CNC(=O)Nc2ncc([N+](=O)[O-])s2)cc1 | IC50 | µM | 29 |
| Cn1cc(C2=C(c3ccc(Cl)cc3Cl)C(=O)NC2=O)c2ccccc21 | IC50 | µM | 25 |
| Cn1cc(C2=C(c3coc4ccccc34)C(=O)NC2=O)c2cc(Br)ccc21 | IC50 | µM | 30 |
| Cn1cc(C2=C(c3coc4cc(F)c(F)cc34)C(=O)NC2=O)c2ccc3ccccc3c21 | IC50 | µM | 17 |
| Cn1cc(C2=C(c3coc4ccccc34)C(=O)NC2=O)c2cc(F)c(Cl)cc21 | IC50 | µM | 3 |

Problem: So what does the record say about IC50 for Cn1cc(C2=C(c3coc4ccc(F)cc34)C(=O)NC2=O)c2cc(C#CC3CC3)ccc21 ?
Result: 34

---

Observed pIC50 for Glycogen synthase kinase-3 beta (Homo sapiens), reported per entry below.
Bear in mind: pIC50 is minus log10 of a mol/L concentration; give just that figure.

| TEST SMILES | ASSAY SYSTEM | pIC50 |
| --- | --- | --- |
| Cn1cc(C2=C(c3coc4ccccc34)C(=O)NC2=O)c2cc(I)ccc21 | Glycogen synthase kinase-3 beta (Homo sapiens) | 7.46 |
| COc1ccc2c(C3=C(c4cn(C)c5cc(Cl)c(F)cc45)C(=O)NC3=O)coc2c1 | Glycogen synthase kinase-3 beta (Homo sapiens) | 6.06 |
| Cn1cc(C2=C(c3coc4ccc(F)cc34)C(=O)NC2=O)c2cc(Cl)ccc21 | Glycogen synthase kinase-3 beta (Homo sapiens) | 7.38 |

Problem: So what does the record say about pIC50 for COc1cccc2c(C3=C(c4cn(C)c5ccc(Br)cc45)C(=O)NC3=O)coc12 ?
Result: 8.12

Problem: So what does the record say about pIC50 for Cn1cc(C2=C(c3coc4cc(OCC5CCC5)ccc34)C(=O)NC2=O)c2cc(F)c(Cl)cc21 ?
Result: 5.39
